system.under.test: human JAK2 (a.a. 828-1132) (Homo sapiens, UniProt O60674)
Construct: JAK2 (a.a. 828-1132); His tag (N); made in house; host or cells: insect cells (baculovirus)
Sequence (O60674 828-1132): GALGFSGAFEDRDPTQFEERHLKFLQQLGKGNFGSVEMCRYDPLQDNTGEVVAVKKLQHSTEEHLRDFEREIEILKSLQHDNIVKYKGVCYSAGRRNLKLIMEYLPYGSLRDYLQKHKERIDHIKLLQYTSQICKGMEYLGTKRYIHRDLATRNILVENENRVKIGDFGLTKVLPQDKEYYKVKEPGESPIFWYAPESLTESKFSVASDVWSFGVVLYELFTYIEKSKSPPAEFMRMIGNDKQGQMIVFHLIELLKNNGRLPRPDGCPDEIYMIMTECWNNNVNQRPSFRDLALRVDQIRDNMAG
assay.overview: In vitro JAK kinase assay (HTRF, phosphorylation of a biotinylated peptide), JAK2
Type: biochemical
conditions: method AA1 (30 μM ATP) or AA2 (1000 μM ATP), not stated per value
Structures can show the parent of a compound that is named as a salt.
property.name: log10(IC50) (log10 of the value in nM)
Scale: log10; quantity: IC50; unit before log: nM

* O=C(CNC(=O)Nc1ccccc1)Nc1ccc2cc1CCc1cccc(c1)Nc1ncc(Cl)c(n1)N2 [Example A66, trifluoroacetate] | 0.49
* Cc1cc(N2CCC(CC(=O)Nc3ccc4cc3CCc3cncc(c3)Nc3ncc(Cl)c(n3)N4)CC2)no1 [Example A247, bis(trifluoroacetate)] | 1.86
* O=C(CC1CCN(S(=O)(=O)c2ccco2)CC1)Nc1ccc2cc1CCc1cccc(c1)Nc1ncc(Cl)c(n1)N2 [Example A211, trifluoroacetate] | 1.82

Ask: Endpoint output: log10(IC50) of CC(C)S(=O)(=O)N1CCC(CC(=O)Nc2ccc3cc2CCc2cncc(c2)Nc2ncc(Cl)c(n2)N3)CC1 [Example A97, bis(trifluoroacetate)] . Value?
Reply: 0.88
